The measured values listed here are drawn from patent US20110118447A1.

Target: binding partner (antigen) of C5A (XPA23)
Assay: Biacore, K-off, fold vs original
parameter: fold difference in affinity vs original (fold)
// note: answer is a bare numeric in fold

| binder | output unit | observed value |
| --- | --- | --- |
| C5A (XPA23) VH S52G (antibody, V domains shown) VH: EVQLLESGGGLVQPGGSLRLSCAASGFTFSKYFMFWVRQAPGKGLEWVSVIGPSGGMTRYADSVKGRFTISRDNSKNTLYLQMNSLRAEDTAVYYCARVGYGGNSDYWGQGTLVTVSS VL: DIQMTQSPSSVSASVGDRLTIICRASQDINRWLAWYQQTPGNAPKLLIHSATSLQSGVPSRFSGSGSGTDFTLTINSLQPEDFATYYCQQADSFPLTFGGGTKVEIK | fold | 0.03 |

Asked: Bench note: what fold difference in affinity vs original did C5A (XPA23) VH M57V (antibody, V domains shown) VH: EVQLLESGGGLVQPGGSLRLSCAASGFTFSKYFMFWVRQAPGKGLEWVSVISPSGGVTRYADSVKGRFTISRDNSKNTLYLQMNSLRAEDTAVYYCARVGYGGNSDYWGQGTLVTVSS VL: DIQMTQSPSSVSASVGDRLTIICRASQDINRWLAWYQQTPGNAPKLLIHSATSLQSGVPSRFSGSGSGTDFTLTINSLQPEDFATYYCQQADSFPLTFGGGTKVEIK show?
Given back: 0.03
